Value source: patent US20240174744A1

ASSAYED TARGET: T1, dog iRhom2 full length wild type, C-terminally tagged with 3 consecutive copies of the T7 epitope (dog, UniProt Q00M95 1-827)
T1 construct: whole, on cells; also called Dog-iR2-FL-WT-T7
T1 sequence: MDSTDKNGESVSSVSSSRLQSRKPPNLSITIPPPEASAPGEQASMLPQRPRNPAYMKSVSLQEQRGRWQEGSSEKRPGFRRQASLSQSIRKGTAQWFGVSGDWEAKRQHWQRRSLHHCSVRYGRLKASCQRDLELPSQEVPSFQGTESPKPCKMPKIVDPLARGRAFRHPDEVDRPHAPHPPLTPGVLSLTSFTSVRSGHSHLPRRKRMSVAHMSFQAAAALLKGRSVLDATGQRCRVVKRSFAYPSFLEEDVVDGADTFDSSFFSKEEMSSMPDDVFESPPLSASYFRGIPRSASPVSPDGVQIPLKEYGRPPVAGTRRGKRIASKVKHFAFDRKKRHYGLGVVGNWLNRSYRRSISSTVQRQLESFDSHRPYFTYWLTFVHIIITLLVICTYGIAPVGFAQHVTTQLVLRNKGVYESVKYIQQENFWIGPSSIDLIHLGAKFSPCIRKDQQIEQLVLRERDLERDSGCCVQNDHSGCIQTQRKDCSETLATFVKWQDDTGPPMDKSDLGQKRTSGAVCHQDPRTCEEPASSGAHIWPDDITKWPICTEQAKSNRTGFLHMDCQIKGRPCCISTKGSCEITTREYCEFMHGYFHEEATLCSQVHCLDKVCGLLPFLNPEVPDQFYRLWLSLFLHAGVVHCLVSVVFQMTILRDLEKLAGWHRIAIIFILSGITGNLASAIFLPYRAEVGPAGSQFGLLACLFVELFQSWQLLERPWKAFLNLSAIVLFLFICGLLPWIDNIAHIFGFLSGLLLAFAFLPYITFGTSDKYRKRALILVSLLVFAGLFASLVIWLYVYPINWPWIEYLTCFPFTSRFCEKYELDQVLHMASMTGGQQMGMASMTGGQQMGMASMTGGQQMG
PROTOCOL TEXT: FACS, MEF-DKO-Dog-iR2-FL-WT-T7 cells

BINDER: antibody 51 (antibody, V domains shown, Mouse IgG, kappa light chain; also called clone #51) VH: QVQLQQSGAELVKPGASVKISCKASGYTFSNYWMNWVKQRPGKGLEWIGQIYPGDGDTKYNGKFKNKATLTADKSSSTAYMQFSSLTSEDSAVYFCARGDLVFVYWGLGTLVTVSA VL: DVQITQSPSYLAVSPGETITINCRASKNIRKYLAWYQEKPGKTNKLLIYSGSTSQSGVPSRFSGSGSGTDFTLTISSLEPEDFAMYYCQQHNEYPYTFGGGTKLEIK
binding result: binds

BINDER: antibody 57 (antibody, V domains shown, Mouse IgG, kappa light chain; also called clone #57) VH: QVTLKESGPGILQPSQTLSLTCSFSGFSLSTFGMGVGWIRQPSGKGLEWLAHIWWDDDKYYNPALKSRLTISKDTSKNQIFLKIANVDTADSATFYCARIENYGSNYWYFDVWGTGTTVTVSS VL: QIVLTQSPAIMSASPGEKVTMTCSASSSVSYMYWYQQKPGSSPRVLIYDTSNLASGVPVRFSGSGSGTSYSLTVSRMEAEDAATYYCQQWNSYPLTFGAGTKLELK
binding result: binds

BINDER: antibody 46 (antibody, V domains shown, Mouse IgG, kappa light chain; also called clone #46) VH: QVTLKESGPGILQPSQTLSLTCSFSGFSLSTFGMGVGWIRQPSGKGLEWLAHIWWDDDNYYNQALKSRLTISKDNTKNQVFLNIANVDTADTATYYCARIRSYDYDVRYAMDYWGQGTSVTVSS VL: DIKMTQSPSSMYASLRERVTITCKASQDINSYLSWFQQKPGKSPKTLIYRANRLVDGVPSRFSGSGSGQDYSLTISSLEYEDLGIYYCQQYYEFPLTFGAGTRLELK
binding result: binds
